Reference source for all entries: BindingDB's records for doi:10.1021/jm00039a025

ASSAY_NAME: Ability to inhibit glycinamide ribonucleotide transformylase (GAR-Tfase) in vitro, using hog liver with (6R)-10-formyl-FH4 as cofactor
Measured IC50 of individual entries
ENDPOINT: IC50 (nM)

>>> recorded_value("Nc1nc(N)c(CCCNc2cnc(C(=O)N[C@H](CCC(=O)O)C(=O)O)s2)c(=O)[nH]1")
140
>>> recorded_value("Nc1nc(N)c(CCCNc2ccc(C(=O)N[C@H](CCC(=O)O)C(=O)O)s2)c(=O)[nH]1")
2060
